# Protocol Description: Selectivity index, ratio of CC50 for cytotoxicity in mouse NCTC-929 cells to EC50 for Antitrypanosomal activity against Trypanosoma cruzi trypomastigotes infected in LLC-MK2-ATCC CCL7 cells
# Type: toxicity, cell-based
# Experimental Context: read-out: Ratio CC50/EC50
Parameter: selectivity ratio

compound=O=C(/C=C/c1ccccc1)c1cccc(O)c1 parameter="selectivity ratio" qualifying_sign== result_number=1.1
compound=CN(C)c1ccc(/C=C/C(=O)c2cccc(O)c2)cc1 parameter="selectivity ratio" qualifying_sign=> result_number=7
compound=C=CCOc1ccccc1C(=O)/C=C/c1ccccc1 parameter="selectivity ratio" qualifying_sign== result_number=7.3
compound=O=C(/C=C/c1ccc2c(c1)OCO2)c1ccccc1 parameter="selectivity ratio" qualifying_sign== result_number=1.6
compound=O=C(/C=C/c1ccc2c(c1)OCO2)c1cccc(O)c1 parameter="selectivity ratio" qualifying_sign== result_number=1
compound="COc1cc(CCC(O)c2ccc(-c3ccccc3)cc2)cc(OC)c1OC (racemic)" parameter="selectivity ratio" qualifying_sign== result_number=3.4
compound=O=C(/C=C/c1ccccc1)c1ccccc1 parameter="selectivity ratio" qualifying_sign== result_number=3.3
compound="O=C(/C=C/c1ccccc1)c1ccccc1O [2'-HYDROXYCHALCONE]" parameter="selectivity ratio" qualifying_sign== result_number=2.8
compound=COc1cc(/C=C/C(=O)c2ccc(-c3ccccc3)cc2)cc(OC)c1OC parameter="selectivity ratio" qualifying_sign== result_number=8.9
compound=COc1cc(/C=C/C(=O)c2ccccc2)cc(OC)c1OC parameter="selectivity ratio" qualifying_sign== result_number=1.5
compound=O=C(/C=C/c1ccccc1)c1ccc([N+](=O)[O-])cc1 parameter="selectivity ratio" qualifying_sign== result_number=9.1
compound=C=CCOc1ccccc1C(=O)/C=C/c1ccc2c(c1)OCO2 parameter="selectivity ratio" qualifying_sign== result_number=4.3
compound=CN(C)c1ccc(/C=C/C(=O)c2ccccc2)cc1 parameter="selectivity ratio" qualifying_sign== result_number=1.6

----------
# Protocol Description: Cytotoxicity in mouse NCTC-929 cells assessed as reduction in cell viability incubated for 48 hrs by MTT assay
# Type: cell-based
# Experimental Context: NCTC-929 (L929) cells
Catalogue of compounds with associated CC50 at 48 h
Parameter: CC50 at 48 h

compound=O=C(CCc1ccccc1)c1ccc([N+](=O)[O-])cc1 result="> 200 µM"
compound=CN(C)c1ccc(CCC(=O)c2cccc(O)c2)cc1 result="> 200 µM"
compound=COc1ccc(C(=O)/C=C/c2ccccc2)cc1 result="50.4 µM"
compound=COc1cc(/C=C/C(=O)c2ccc(-c3ccccc3)cc2)cc(OC)c1OC result="29 µM"
compound=COc1ccc(C(=O)/C=C/c2ccc3c(c2)OCO3)cc1 result="> 200 µM"
compound="CN(C)c1ccc(CCC(O)c2cccc(O)c2)cc1 (racemic)" result="> 200 µM"
compound=CN(C)c1ccc(/C=C/C(=O)c2ccc(-c3ccccc3)cc2)cc1 result="> 200 µM"
compound=COc1cc(/C=C/C(=O)c2ccccc2)cc(OC)c1OC result="27.3 µM"
compound=COc1ccc(C(=O)/C=C/c2ccc([N+](=O)[O-])cc2)cc1 result="> 200 µM"
compound=COc1ccc(C(=O)/C=C/c2ccc(Cl)cc2)cc1 result="120 µM"
compound=COc1cc(CCC(=O)c2ccc(-c3ccccc3)cc2)cc(OC)c1OC result="> 200 µM"

----------
# Protocol Description: Cytotoxicity in mouse NCTC-929 cells assessed as reduction in cell viability incubated for 48 hrs by MTT assay
# Assay type: cell-based
# Experimental Context: NCTC-929 (L929) cells
Parameter: CC50 at 48 h (µM)

molecule=O=C(/C=C/c1ccc2c(c1)OCO2)c1ccccc1 measurement_unit=µM qualifying_sign== result_number=100
molecule="Oc1ccccc1C(O)CCc1ccccc1 (racemic)" measurement_unit=µM qualifying_sign=> result_number=200
molecule=CN(C)c1ccc(/C=C/C(=O)c2cccc(O)c2)cc1 measurement_unit=µM qualifying_sign=> result_number=200
molecule=O=C(/C=C/c1ccccc1)c1ccccc1 measurement_unit=µM qualifying_sign== result_number=89.3
molecule=CN(C)c1ccc(/C=C/C(=O)c2ccc([N+](=O)[O-])cc2)cc1 measurement_unit=µM qualifying_sign=> result_number=200
molecule=O=C(/C=C/c1ccc2c(c1)OCO2)c1ccc([N+](=O)[O-])cc1 measurement_unit=µM qualifying_sign=> result_number=200
molecule=C=CCOc1ccccc1C(=O)/C=C/c1ccc2c(c1)OCO2 measurement_unit=µM qualifying_sign== result_number=82.3
molecule=O=C(/C=C/c1ccccc1)c1ccc(-c2ccccc2)cc1 measurement_unit=µM qualifying_sign=> result_number=200
molecule=CN(C)c1ccc(/C=C/C(=O)c2ccccc2O)cc1 measurement_unit=µM qualifying_sign== result_number=50.4
molecule=CN(C)c1ccc(/C=C/C(=O)c2ccccc2)cc1 measurement_unit=µM qualifying_sign== result_number=117
molecule=O=C(/C=C/c1ccccc1)c1ccc([N+](=O)[O-])cc1 measurement_unit=µM qualifying_sign== result_number=127
molecule=C=CCOc1ccccc1C(=O)/C=C/c1ccccc1 measurement_unit=µM qualifying_sign== result_number=77.6

----------
# Protocol Description: Cytotoxicity in mouse NCTC-929 cells assessed as reduction in cell viability incubated for 48 hrs by MTT assay
# Type: cell-based
# Experimental Context: NCTC-929 (L929) cells
Catalogue of molecules with associated CC50 at 48 h
Parameter: CC50 at 48 h (µM)

molecule="OC(CCc1ccc2c(c1)OCO2)c1ccc(Cl)cc1 (racemic)" qualifying_sign=> result_number=200
molecule=CN(C)c1ccc(/C=C/C(=O)c2ccc(Cl)cc2)cc1 qualifying_sign=> result_number=200
molecule="O=C(/C=C/c1ccccc1)c1ccccc1O [2'-HYDROXYCHALCONE]" qualifying_sign== result_number=79.5
molecule=COc1ccc(C(=O)/C=C/c2ccc(N(C)C)cc2)cc1 qualifying_sign=> result_number=200
molecule=O=C(/C=C/c1ccc2c(c1)OCO2)c1ccc(Cl)cc1 qualifying_sign=> result_number=200
molecule=CN(C)c1ccc(/C=C/C(=O)c2cccc(N)c2)cc1 qualifying_sign== result_number=101
molecule="O=[N+]([O-])c1ccc(C(O)CCc2ccccc2)cc1 (racemic)" qualifying_sign=> result_number=200
molecule=O=C(CCc1ccc2c(c1)OCO2)c1ccc(Cl)cc1 qualifying_sign=> result_number=200
molecule=O=C(Cn1ccnc1[N+](=O)[O-])NCc1ccccc1 qualifying_sign=> result_number=200
molecule=O=C(/C=C/c1ccccc1)c1cccc(O)c1 qualifying_sign== result_number=29.9
molecule=O=C(/C=C/c1ccc2c(c1)OCO2)c1ccccc1O qualifying_sign== result_number=140
molecule="COc1cc(CCC(O)c2ccc(-c3ccccc3)cc2)cc(OC)c1OC (racemic)" qualifying_sign== result_number=95.6
molecule=O=C(/C=C/c1ccc2c(c1)OCO2)c1cccc(O)c1 qualifying_sign== result_number=24.5
